target: SARS-CoV-2 S1-NTD (aa16-305) (SARS-CoV-2 Wuhan, UniProt P0DTC2 16-305); test: ELISA, coated antigen, apparent EC50
# reported EC50; entries follow
Property: EC50 (nM)

>>> reported_result("NRCoV2-SR02 VHH-Fc (Fc fusion, bivalent) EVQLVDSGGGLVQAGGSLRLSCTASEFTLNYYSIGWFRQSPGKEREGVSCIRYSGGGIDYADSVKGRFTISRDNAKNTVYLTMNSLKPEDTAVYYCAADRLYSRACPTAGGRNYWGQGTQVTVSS")
0.34
>>> reported_result("NRCoV2-MRed07 VHH-Fc (Fc fusion, bivalent) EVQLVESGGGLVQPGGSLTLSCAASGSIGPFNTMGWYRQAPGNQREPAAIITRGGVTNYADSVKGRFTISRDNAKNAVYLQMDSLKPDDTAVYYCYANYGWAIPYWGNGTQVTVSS")
0.8
